test system: HBV viral production in AD38 cells; experiment: Viral load production in AD38 cells by quantitative PCR of the HBV core sequence in supernatant; assay type: cell-based; conditions: Hepatitis B virus, 144 h; 10 μM compound, 6 days at 37° C., viral load in supernatant compared against DMSO control wells; read-out: AD38 Viral Load (CpAM/DMSO %) at 10 μM
metric name: activity at 10 µM (%)
Number only, in %; omit the unit.

# count of solved cases: 6
Entry O=C(NCCOc1ccccc1)c1ccc2c(c1)NC(=O)c1ccccc1S2(=O)=O , activity at 10 µM reported as 2

Entry O=C(Nc1cccc(-c2cncnc2)c1)c1ccc2c(c1)NC(=O)c1cc(F)ccc1S2 , activity at 10 µM reported as 71

Entry CN(C)S(=O)(=O)c1ccc(CCNC(=O)c2ccc3c(c2)NC(=O)c2cc(F)ccc2S3)cc1 , activity at 10 µM reported as 4

Entry O=C(Nc1cccc(-c2cccc(O)c2)c1)c1ccc2c(c1)NC(=O)c1cc(F)ccc1S2 , activity at 10 µM reported as 76

Entry O=C(NCCCc1ccccc1)c1ccc2c(c1)NC(=O)c1ccccc1S2 , activity at 10 µM reported as 1

Entry Cc1c(C(=O)NCCc2ccc(S(=O)(=O)N(C)C)cc2)ccc2c1NC(=O)c1ccccc1S2 , activity at 10 µM reported as 2

Continuing:
Entry O=C(Nc1ccncc1)c1ccc2c(c1)NC(=O)c1c(F)cccc1S2 , activity at 10 µM reported as 31

Entry Cc1c(C(=O)NCc2cncnc2)ccc2c1NC(=O)c1ccccc1S2 , activity at 10 µM reported as 2

Entry COc1ccccc1CNC(=O)c1ccc2c(c1)NC(=O)c1ccccc1S2 , activity at 10 µM reported as 8

Entry O=C(NCc1ccccc1F)c1ccc2c(c1)NC(=O)c1ccccc1S2 , activity at 10 µM reported as 57

Entry O=C(NCCc1ccc(-n2ccnc2)cc1)c1ccc2c(c1)NC(=O)c1ccccc1S2 , activity at 10 µM reported as 3

Entry O=C(NCCc1cccnn1)c1ccc2c(c1)NC(=O)c1ccccc1S2 , activity at 10 µM reported as 1

Entry O=C1Nc2cc(S(=O)(=O)NCCc3ccccc3)ccc2Sc2ccccc21 , activity at 10 µM reported as 40

Entry O=C(NCCc1cncs1)c1ccc2c(c1)NC(=O)c1ccccc1S2(=O)=O , activity at 10 µM reported as 1

Entry CCc1ncc(CNC(=O)c2ccc3c(c2)NC(=O)c2ccccc2S3)s1 , activity at 10 µM reported as 0

Entry NC(=O)c1ccc2c(c1)Sc1ccc(C(=O)NCCc3ccccc3)cc1NC2=O , activity at 10 µM reported as 55

Entry O=C(NCCOc1ccc(F)cc1)c1ccc2c(c1)NC(=O)c1ccccc1S2 , activity at 10 µM reported as 11

Entry O=C(NCCC1CCC(O)CC1)c1ccc2c(c1)NC(=O)c1ccccc1S2 (stereo not shown) , activity at 10 µM reported as 2

Entry O=C(Nc1cccc(F)c1)c1ccc2c(c1)NC(=O)c1cc(F)ccc1S2 , activity at 10 µM reported as 50

Entry CC(C)(C)c1ccc([C@@H](CO)NC(=O)c2ccc3c(c2)NC(=O)c2cc(F)ccc2S3)cc1 , activity at 10 µM reported as 17

Source: patent US10183936B2
